Test system: bedstraw
Assay: Test B pre/postemergence bedstraw
Type: in vivo, Galium aparine
Settings: Rate 250 g/ha; Postemergence
readout name: Plant response rating (0 to 10; 0 is no effect, 10 is complete control), Bedstraw
Provide a numeric answer; units are not to be included.

For orientation, consider the following solved cases.
CC(C)N(C(=O)n1oc(=O)n(-c2cccnc2)c1=O)c1ccc(F)cc1 ... 0
CC(C)N(C(=O)n1oc(=O)n([C@H](C)c2ccccc2)c1=O)c1ccc(F)cc1F ... 8
CC(C)N(C(=O)n1oc(=O)n(C2CC2)c1=O)c1ccc(F)cc1 ... 7
CCc1ccc(N(C(=O)n2oc(=O)n(-c3ccccc3C)c2=O)C(C)C)cc1 ... 0

Now for another entry.
### Prompt Specify Plant response rating (0 to 10; 0 is no effect, 10 is complete control), Bedstraw for CCOC(=O)C=CCn1c(=O)on(C(=O)N(c2ccc(F)cc2)C(C)C)c1=O and stop.
### Response 2

----------
Tested on: pigweed
Assay: Test B pre/postemergence pigweed
Type: in vivo, Amaranthus retroflexus
Settings: Preemergence, Rate 500 g/ha; scale of 0 to 10 where 0 is no effect and 10 is complete control
# Lookup of reported Redroot pigweed plant response rating keyed by entry
Provide a numeric answer; units are not to be included.

For orientation, consider the following solved cases.
CCC=CCn1c(=O)on(C(=O)N(c2ccc(Cl)cc2)C(C)C)c1=O [Compound 552] ... 4
CCN(CC)C(=O)n1oc(=O)n(-c2ccccc2C)c1=O [Compound 364] ... 0
CCN(C(=O)n1oc(=O)n(Cc2ccco2)c1=O)C1CCCCC1 [Compound 312] ... 0
CSCCn1c(=O)on(C(=O)N(c2ccc(F)cc2)C(C)C)c1=O [Compound 314] ... 9

Now for another entry.
### Prompt Provide Redroot pigweed plant response rating, system pigweed, entry CC(Cl)=CCn1c(=O)on(C(=O)N(c2ccc(F)cc2F)C(C)C)c1=O [Compound 514]
### Response 10

----------
# Lookup of reported Giant foxtail plant response rating keyed by entry
System: giant foxtail
Assay: Test B pre/postemergence giant foxtail
Assay type: in vivo, Setaria faberii
Details: Preemergence, Rate 500 g/ha; scale of 0 to 10 where 0 is no effect and 10 is complete control

For orientation, consider the following solved cases.
CC(C)N(C(=O)n1oc(=O)n(CCCCF)c1=O)c1ccc(Cl)cc1 ... 10
Cc1ccccc1-n1c(=O)on(C(=O)N(c2ccc(Cl)cc2)C(C)C2CC2)c1=O (stereo not drawn) ... 0

### Prompt Specify Giant foxtail plant response rating for CC(C)N(C(=O)n1oc(=O)n(CC2OCCO2)c1=O)c1ccc(F)cc1F and stop.
### Response 10

### Prompt Specify Giant foxtail plant response rating for CC(C)N(C(=O)n1oc(=O)n(CC2=NCCO2)c1=O)c1ccccc1 and stop.
### Response 0

### Prompt Specify Giant foxtail plant response rating for CC(Cl)=CCn1c(=O)on(C(=O)N(c2ccc(F)cc2F)C(C)C)c1=O and stop.
### Response 10

### Prompt Specify Giant foxtail plant response rating for CC(C)N(C(=O)n1oc(=O)n(C2CCCCCC2)c1=O)c1ccc(F)cc1F and stop.
### Response 10

----------
Tested on: surinam grass
Assay: Test B pre/postemergence surinam grass
Format: in vivo, Brachiaria decumbens
Details: Preemergence, Rate 250 g/ha; scale 0 (no effect) to 10 (complete control)
# Lookup of reported B. signalgrass plant response rating keyed by entry
Provide a numeric answer; units are not to be included.

For orientation, consider the following solved cases.
CC(C)N(C(=O)n1oc(=O)n(C(C)C2=NOCC2)c1=O)c1ccc(F)cc1 (racemic) ... 8
C=C(Cn1c(=O)on(C(=O)N(c2ccc(F)cc2)C(C)C)c1=O)C(=O)OC ... 0
CCOC(CC)n1c(=O)on(C(=O)N(c2ccc(F)cc2F)C(C)C)c1=O (stereo not shown) ... 0
CC(C)N(C(=O)n1oc(=O)n(CCN(C)C(=O)c2ccccc2)c1=O)c1ccc(F)cc1 ... 2

### Prompt Specify B. signalgrass plant response rating for COCC(OC)n1c(=O)on(C(=O)N(c2ccc(F)cc2F)C(C)C)c1=O (stereo not shown) and stop.
### Response 10

### Prompt Specify B. signalgrass plant response rating for COC1CCC(Cn2c(=O)on(C(=O)N(c3ccc(Cl)cc3)C(C)C)c2=O)=NO1 (stereo not shown) and stop.
### Response 10

### Prompt Specify B. signalgrass plant response rating for CC(C)N(C(=O)n1oc(=O)n(CBr)c1=O)c1ccccc1 and stop.
### Response 0

----------
# Lookup of reported Wild oats plant response rating keyed by entry
System: wild oat
Assay: Test B pre/postemergence wild oat
Assay type: in vivo, Avena fatua
Settings: Preemergence, Rate 62 g/ha; scale of 0 to 10 where 0 is no effect and 10 is complete control
Provide a numeric answer; units are not to be included.

COCn1c(=O)on(C(=O)N(c2ccc(F)cc2)C(C)C)c1=O ... 1
CCOC(=O)C=CCn1c(=O)on(C(=O)N(c2ccc(F)cc2)C(C)C)c1=O ... 0
CC(C)=CCCC(C)=CCn1c(=O)on(C(=O)N(c2ccc(F)cc2)C(C)C)c1=O ... 0
CC(C)N(C(=O)n1oc(=O)n(C2CCCC2)c1=O)c1ccccc1 ... 0
CC(C)N(C(=O)n1oc(=O)n(C2CC2)c1=O)c1ccc(F)cc1 ... 7

### Prompt Specify Wild oats plant response rating for CC(C)N(C(=O)n1oc(=O)n(CC(=O)C(C)(C)C)c1=O)c1ccc(F)cc1 and stop.
### Response 0

### Prompt Specify Wild oats plant response rating for CC(C)N(C(=O)n1oc(=O)n(CCC(=O)N(C)C)c1=O)c1ccc(F)cc1F and stop.
### Response 7

### Prompt Specify Wild oats plant response rating for CCc1ccc(N(C(=O)n2oc(=O)n(-c3ccccc3C)c2=O)C(C)C)cc1 and stop.
### Response 0

----------
System: sugar beet
Test: Test B pre/postemergence sugar beet
Format: in vivo, Beta vulgaris
Conditions: Postemergence, Rate 62 g/ha; scale 0 to 10, 0 is no effect, 10 is complete control
# Lookup of reported Plant response rating, Sugarbeets keyed by entry
Provide a numeric answer; units are not to be included.

For orientation, consider the following solved cases.
C#CC(C=C(C)C)n1c(=O)on(C(=O)N(c2ccccc2)C(C)C)c1=O (stereo not shown) ... 0
CCOC(CC)n1c(=O)on(C(=O)N(c2ccc(F)cc2F)C(C)C)c1=O (stereo not shown) ... 0
CCC(C)n1c(=O)on(C(=O)N(c2ccccc2)C(C)C)c1=O (stereo not shown) ... 0

Now for another entry.
### Prompt Specify Plant response rating, Sugarbeets for C=C(Cn1c(=O)on(C(=O)N(c2ccccc2)C(C)C)c1=O)c1ccc(F)cc1 and stop.
### Response 0

----------
# Lookup of reported Bedstraw plant response rating keyed by entry
Test system: bedstraw
Test: Test B pre/postemergence bedstraw
Format: in vivo, Galium aparine
Conditions: Rate 125 g/ha; Postemergence; scale 0 to 10, 0 no effect, 10 complete control
Provide a numeric answer; units are not to be included.

For orientation, consider the following solved cases.
COc1ccc(-n2c(=O)on(C(=O)N(c3ccc(F)cc3F)C(C)C)c2=O)c(OC)c1 ... 0
CC(C)N(C(=O)n1oc(=O)n(Cc2ccccc2)c1=O)c1ccc(F)cc1F ... 3
CCN(CC)C(=O)n1oc(=O)n(-c2c(C)cccc2C)c1=O ... 0

### Prompt Specify Bedstraw plant response rating for Cc1ccccc1-n1c(=O)on(C(=O)N(c2ccc(F)c(F)c2)C(C)C)c1=O and stop.
### Response 0

### Prompt Specify Bedstraw plant response rating for CC(C)N(C(=O)n1oc(=O)n(-c2ccccc2)c1=O)c1ccc(F)cc1 and stop.
### Response 0

### Prompt Specify Bedstraw plant response rating for CCN(C(=O)n1oc(=O)n(-c2ccccc2OC)c1=O)C1CCCCC1 and stop.
### Response 0

----------
Tested on: pigweed
Test: Test B pre/postemergence pigweed
Assay type: in vivo, Amaranthus retroflexus
Conditions: Preemergence, Rate 250 g/ha; scale of 0 to 10 where 0 is no effect and 10 is complete control
readout name: Redroot pigweed plant response rating
Provide a numeric answer; units are not to be included.

COC(=O)CCCn1c(=O)on(C(=O)N(c2ccc(F)cc2)C(C)C)c1=O ... 6
COCn1c(=O)on(C(=O)N(c2ccc(F)cc2)C(C)C)c1=O ... 10
CC(C)N(C(=O)n1oc(=O)n(C2CCCO2)c1=O)c1ccc(F)cc1 (centres unmarked) ... 0
CCOCn1c(=O)on(C(=O)N(c2ccc(F)cc2)C(C)C)c1=O ... 6

Now for another entry.
### Prompt Specify Redroot pigweed plant response rating for CC(C)N(C(=O)n1oc(=O)n(-c2ccsc2)c1=O)c1ccc(F)cc1 and stop.
### Response 0

----------
Test system: giant foxtail
Experiment: Test B pre/postemergence giant foxtail
Type: in vivo, Setaria faberii
Details: Preemergence, Rate 250 g/ha; scale of 0 to 10 where 0 is no effect and 10 is complete control
readout name: Giant foxtail plant response rating
Provide a numeric answer; units are not to be included.

For orientation, consider the following solved cases.
CSCCn1c(=O)on(C(=O)N(c2ccc(F)cc2)C(C)C)c1=O [Compound 314] ... 7
CC(C)N(C(=O)n1oc(=O)n(C2CCCC2)c1=O)c1ccccc1 [Compound 283] ... 10

Now for another entry.
### Prompt Provide Giant foxtail plant response rating, system giant foxtail, entry CC(C)N(C(=O)n1oc(=O)n(CC(C)(C)C)c1=O)c1ccc(F)cc1 [Compound 246]
### Response 10

Cited source for all entries: patent US6737383B1
